system: NCI-H2347; test: relative viability (nuclei count vs DMSO), 5 days (fraction); higher = more cells survive; conditions: first compound 0.5 µM
Could you please report measured relative viability for the items listed next?
Give bare numbers.

Give relative viability for each listed item.
1. CC1(C)CCC(c2ccc(Cl)cc2)=C(CN2CCN(c3ccc(C(=O)NS(=O)(=O)c4ccc(N[C@H](CCN5CCOCC5)CSc5ccccc5)c(S(=O)(=O)C(F)(F)F)c4)cc3)CC2)C1 [Navitoclax] + C[C@@H](Oc1cc(-c2cnn(C3CCNCC3)c2)cnc1N)c1c(Cl)ccc(F)c1Cl [Crizotinib] (partner 1 µM)
2. CC1(C)CCC(c2ccc(Cl)cc2)=C(CN2CCN(c3ccc(C(=O)NS(=O)(=O)c4ccc(N[C@H](CCN5CCOCC5)CSc5ccccc5)c(S(=O)(=O)C(F)(F)F)c4)cc3)CC2)C1 [Navitoclax] + O=C(c1cc(Cc2n[nH]c(=O)c3ccccc23)ccc1F)N1CCN(C(=O)C2CC2)CC1 [Olaparib] (partner 8 µM)
3. CC1(C)CCC(c2ccc(Cl)cc2)=C(CN2CCN(c3ccc(C(=O)NS(=O)(=O)c4ccc(N[C@H](CCN5CCOCC5)CSc5ccccc5)c(S(=O)(=O)C(F)(F)F)c4)cc3)CC2)C1 [Navitoclax] + C[C@]1(O)C[C@@H](c2nc(-c3ccc4ccc(-c5ccccc5)nc4c3)c3c(N)nccn32)C1 [Linsitinib] (partner 1 µM)

[out]
[0.705, 0.51, 0.973]

====

Could you please report measured relative viability for the items listed next?
test system: A-427; test: relative viability (nuclei count vs DMSO), 5 days (fraction); higher = more cells survive; settings: first compound 0.03162 µM
Answers are plain numbers.

Known results for molecules:
Molecule: NC(=O)Nc1cc(-c2cccc(F)c2)sc1C(=O)N[C@H]1CCCNC1 [AZD7762] + COc1cc2c(Oc3ccc(NC(=O)C4(C(=O)Nc5ccc(F)cc5)CC4)cc3F)ccnc2cc1OCCCN1CCOCC1 [Foretinib] (partner 0.25 µM)
Measured endpoint: relative viability
Observed result: 0.976
//
Molecule: NC(=O)Nc1cc(-c2cccc(F)c2)sc1C(=O)N[C@H]1CCCNC1 [AZD7762] + COc1cccc2cc(-c3nc([C@H]4CC[C@H](C(=O)O)CC4)n4ncnc(N)c34)[nH]c12 [OSI-027] (partner 0.5 µM)
Measured endpoint: relative viability
Observed result: 0.498
//
Molecule: NC(=O)Nc1cc(-c2cccc(F)c2)sc1C(=O)N[C@H]1CCCNC1 [AZD7762] + CS(=O)(=O)N1CCN(Cc2cc3nc(-c4cccc5[nH]ncc45)nc(N4CCOCC4)c3s2)CC1 [Pictilisib] (partner 1 µM)
Measured endpoint: relative viability
Observed result: 0.879
//
Molecule: NC(=O)Nc1cc(-c2cccc(F)c2)sc1C(=O)N[C@H]1CCCNC1 [AZD7762] + N=C(N)NC(=N)NCCc1ccccc1 [Phenformin] (partner 250 µM)
Measured endpoint: relative viability
Observed result: 0.346

Note: attention shifts to another entry.
[in] Which relative viability is listed for NC(=O)Nc1cc(-c2cccc(F)c2)sc1C(=O)N[C@H]1CCCNC1 [AZD7762] + CC(=O)Nc1cccc(-n2c(=O)n(C3CC3)c(=O)c3c(Nc4ccc(I)cc4F)n(C)c(=O)c(C)c32)c1 [Trametinib] (partner 0.02 µM) ?
[out] 0.849

====

tested on: LCLC-103H; test: relative viability (nuclei count vs DMSO), 5 days (fraction); higher = more cells survive; settings: first compound 0.8 µM
Field: label. Allowed values: y (relative viability < 0.8) or n (relative viability >= 0.8).

Some solved cases for reference:
Compound: C=C1C(=O)O[C@@H](CCCCCCCC)[C@@H]1C(=O)O [C-75] + CS(=O)(=O)N1CCN(Cc2cc3nc(-c4cccc5[nH]ncc45)nc(N4CCOCC4)c3s2)CC1 [Pictilisib] (partner 1 µM)
Assigned class: y
--
Compound: Oc1nc(-c2ccc(C(F)(F)F)cc2)nc2c1CSCC2 [XAV939] + Cc1nc(NC(=O)N2CCC[C@H]2C(N)=O)sc1-c1ccnc(C(C)(C)C(F)(F)F)c1 [Alpelisib] (partner 2 µM)
Assigned class: n
--
Compound: Oc1nc(-c2ccc(C(F)(F)F)cc2)nc2c1CSCC2 [XAV939] + CS(=O)(=O)N1CCN(Cc2cc3nc(-c4cccc5[nH]ncc45)nc(N4CCOCC4)c3s2)CC1 [Pictilisib] (partner 1 µM)
Assigned class: y

[in] Check if relative viability falls below 0.8 for C=C1C(=O)O[C@@H](CCCCCCCC)[C@@H]1C(=O)O [C-75] + Cc1nc(NC(=O)N2CCC[C@H]2C(N)=O)sc1-c1ccnc(C(C)(C)C(F)(F)F)c1 [Alpelisib] (partner 2 µM) .
[out] n

[in] Check if relative viability falls below 0.8 for Oc1nc(-c2ccc(C(F)(F)F)cc2)nc2c1CSCC2 [XAV939] + CCNC(=O)c1noc(-c2cc(C(C)C)c(O)cc2O)c1-c1ccc(CN2CCOCC2)cc1 [Luminespib] (partner 0.01 µM) .
[out] n

====

system: NCI-H1355; test: relative viability (nuclei count vs DMSO), 5 days (fraction); higher = more cells survive; conditions: first compound 2.53 µM
Could you please report measured relative viability for the items listed next?
Answers are plain numbers.

Compound: C=C1C(=O)O[C@@H](CCCCCCCC)[C@@H]1C(=O)O [C-75] + N=C(N)NC(=N)NCCc1ccccc1 [Phenformin] (partner 250 µM)
relative viability: 0.401
//
Compound: Oc1nc(-c2ccc(C(F)(F)F)cc2)nc2c1CSCC2 [XAV939] + CC(=O)Nc1cccc(-n2c(=O)n(C3CC3)c(=O)c3c(Nc4ccc(I)cc4F)n(C)c(=O)c(C)c32)c1 [Trametinib] (partner 0.02 µM)
relative viability: 0.291

Note: attention shifts to another entry.
[in] Which relative viability is listed for Oc1nc(-c2ccc(C(F)(F)F)cc2)nc2c1CSCC2 [XAV939] + COc1cc2c(Oc3ccc(NC(=O)C4(C(=O)Nc5ccc(F)cc5)CC4)cc3F)ccnc2cc1OCCCN1CCOCC1 [Foretinib] (partner 0.25 µM) ?
[out] 0.619

====

Could you please report measured relative viability for the items listed next?
test system: SW 900; assay: relative viability (nuclei count vs DMSO), 5 days (fraction); higher = more cells survive; details: first compound 0.03162 µM
Give bare numbers.

Known results for compounds:
Compound: NC(=O)Nc1cc(-c2cccc(F)c2)sc1C(=O)N[C@H]1CCCNC1 [AZD7762] + O=C(c1cc(Cc2n[nH]c(=O)c3ccccc23)ccc1F)N1CCN(C(=O)C2CC2)CC1 [Olaparib] (partner 8 µM)
relative viability: 0.835
--
Compound: NC(=O)Nc1cc(-c2cccc(F)c2)sc1C(=O)N[C@H]1CCCNC1 [AZD7762] + CC(=O)c1c(C)c2cnc(Nc3ccc(N4CCNCC4)cn3)nc2n(C2CCCC2)c1=O [Palbociclib] (partner 0.5 µM)
relative viability: 0.688
--
Compound: NC(=O)Nc1cc(-c2cccc(F)c2)sc1C(=O)N[C@H]1CCCNC1 [AZD7762] + Nc1ncn([C@H]2C[C@H](O)[C@@H](CO)O2)c(=O)n1 [Decitabine] (partner 2 µM)
relative viability: 0.477

Note: attention shifts to another entry.
[in] Which relative viability is listed for NC(=O)Nc1cc(-c2cccc(F)c2)sc1C(=O)N[C@H]1CCCNC1 [AZD7762] + N=C(N)NC(=N)NCCc1ccccc1 [Phenformin] (partner 250 µM) ?
[out] 0.746

====

test system: RERF-LC-KJ; experiment: relative viability (nuclei count vs DMSO), 5 days (fraction); higher = more cells survive; details: first compound 0.1265 µM
Measured endpoint: relative viability
Numbers only.

Known results for compounds:
Compound: O=C(O)c1ccc(-c2c[nH]c3ncc(-c4ccccc4)cc23)cc1C1CCCC1 + N=C(N)NC(=N)NCCc1ccccc1 [Phenformin] (partner 250 µM)
Study system: RERF-LC-KJ
Observed result: 0.456
--
Compound: O=C(O)c1ccc(-c2c[nH]c3ncc(-c4ccccc4)cc23)cc1C1CCCC1 + O=C(c1cc(Cc2n[nH]c(=O)c3ccccc23)ccc1F)N1CCN(C(=O)C2CC2)CC1 [Olaparib] (partner 8 µM)
Study system: RERF-LC-KJ
Observed result: 0.788
--
Compound: O=C(O)c1ccc(-c2c[nH]c3ncc(-c4ccccc4)cc23)cc1C1CCCC1 + COc1cc2c(Oc3ccc(NC(=O)C4(C(=O)Nc5ccc(F)cc5)CC4)cc3F)ccnc2cc1OCCCN1CCOCC1 [Foretinib] (partner 0.25 µM)
Study system: RERF-LC-KJ
Observed result: 0.865

[in] Which relative viability is listed for O=C(O)c1ccc(-c2c[nH]c3ncc(-c4ccccc4)cc23)cc1C1CCCC1 + Nc1ncn([C@H]2C[C@H](O)[C@@H](CO)O2)c(=O)n1 [Decitabine] (partner 2 µM) ?
[out] 0.718

====

Could you please report measured relative viability for the items listed next?
test system: NCI-H1975; assay: relative viability (nuclei count vs DMSO), 5 days (fraction); higher = more cells survive; conditions: first compound 0.1581 µM
One number for each entry.

Compound: CC1(C)CCC(c2ccc(Cl)cc2)=C(CN2CCN(c3ccc(C(=O)NS(=O)(=O)c4ccc(N[C@H](CCN5CCOCC5)CSc5ccccc5)c(S(=O)(=O)C(F)(F)F)c4)cc3)CC2)C1 [Navitoclax] + NC(=O)Nc1cc(-c2cccc(F)c2)sc1C(=O)N[C@H]1CCCNC1 [AZD7762] (partner 0.2 µM)
relative viability: 0.752
--
Compound: CC1(C)CCC(c2ccc(Cl)cc2)=C(CN2CCN(c3ccc(C(=O)NS(=O)(=O)c4ccc(N[C@H](CCN5CCOCC5)CSc5ccccc5)c(S(=O)(=O)C(F)(F)F)c4)cc3)CC2)C1 [Navitoclax] + Nc1ncn([C@H]2C[C@H](O)[C@@H](CO)O2)c(=O)n1 [Decitabine] (partner 2 µM)
relative viability: 0.416
--
Compound: CC1(C)CCC(c2ccc(Cl)cc2)=C(CN2CCN(c3ccc(C(=O)NS(=O)(=O)c4ccc(N[C@H](CCN5CCOCC5)CSc5ccccc5)c(S(=O)(=O)C(F)(F)F)c4)cc3)CC2)C1 [Navitoclax] + CS(=O)(=O)N1CCN(Cc2cc3nc(-c4cccc5[nH]ncc45)nc(N4CCOCC4)c3s2)CC1 [Pictilisib] (partner 1 µM)
relative viability: 0.287
--
Compound: CC1(C)CCC(c2ccc(Cl)cc2)=C(CN2CCN(c3ccc(C(=O)NS(=O)(=O)c4ccc(N[C@H](CCN5CCOCC5)CSc5ccccc5)c(S(=O)(=O)C(F)(F)F)c4)cc3)CC2)C1 [Navitoclax] + COc1cccc2cc(-c3nc([C@H]4CC[C@H](C(=O)O)CC4)n4ncnc(N)c34)[nH]c12 [OSI-027] (partner 0.5 µM)
relative viability: 0.688
--
Compound: CC1(C)CCC(c2ccc(Cl)cc2)=C(CN2CCN(c3ccc(C(=O)NS(=O)(=O)c4ccc(N[C@H](CCN5CCOCC5)CSc5ccccc5)c(S(=O)(=O)C(F)(F)F)c4)cc3)CC2)C1 [Navitoclax] + Nc1nc2[nH]cc(CCc3ccc(C(=O)N[C@@H](CCC(=O)O)C(=O)O)cc3)c2c(=O)[nH]1 [Pemetrexed] (partner 0.2 µM)
relative viability: 0.301
--
Compound: CC1(C)CCC(c2ccc(Cl)cc2)=C(CN2CCN(c3ccc(C(=O)NS(=O)(=O)c4ccc(N[C@H](CCN5CCOCC5)CSc5ccccc5)c(S(=O)(=O)C(F)(F)F)c4)cc3)CC2)C1 [Navitoclax] + CC(=O)Nc1cccc(-n2c(=O)n(C3CC3)c(=O)c3c(Nc4ccc(I)cc4F)n(C)c(=O)c(C)c32)c1 [Trametinib] (partner 0.02 µM)
relative viability: 0.399

Give relative viability for each listed item.
1. CC1(C)CCC(c2ccc(Cl)cc2)=C(CN2CCN(c3ccc(C(=O)NS(=O)(=O)c4ccc(N[C@H](CCN5CCOCC5)CSc5ccccc5)c(S(=O)(=O)C(F)(F)F)c4)cc3)CC2)C1 [Navitoclax] + O=C(c1cc(Cc2n[nH]c(=O)c3ccccc23)ccc1F)N1CCN(C(=O)C2CC2)CC1 [Olaparib] (partner 8 µM)
2. CC1(C)CCC(c2ccc(Cl)cc2)=C(CN2CCN(c3ccc(C(=O)NS(=O)(=O)c4ccc(N[C@H](CCN5CCOCC5)CSc5ccccc5)c(S(=O)(=O)C(F)(F)F)c4)cc3)CC2)C1 [Navitoclax] + CS(=O)(=O)CCNCc1ccc(-c2ccc3ncnc(Nc4ccc(OCc5cccc(F)c5)c(Cl)c4)c3c2)o1 [Lapatinib] (partner 2 µM)

[out]
1. 0.813
2. 0.8
